Tested on: CP203
Assay: qHTS profiling for inhibitors of Plasmodium falciparum proliferation (AID 504749); further: nearly all actives have a fitted effect of over 60% in size
Settings: P. falciparum in erythrocytes, SYBR Green DNA, 72 h; series mostly up to 28.7 µM
Inconclusive results are not listed. Activity calls are given as the source filed them. The call rests on the fitted dose curve; in most records, active means well fitted inhibition curve with a large enough effect; inconclusive means small, poorly fitted or top-dose-only effect; inactive means flat fitted curve, though single readings scatter.
A correct response names exactly one class from 1 (yes) (active), 0 (no) (inactive)

CC(/C=C1\SC(=S)N(CC(=O)O)C1=O)=C\c1ccccc1 = 0 (no)
CN=C(N)NCCCC(N)C(=O)O (stereo unspecified) = 0 (no)
CN1C(=O)CCC1c1cccnc1 (stereo unspecified) = 0 (no)
C=C1/C(=C\C=C2/CCC[C@]3(C)[C@@H]([C@H](C)CCCC(C)(C)O)CC[C@@H]23)C[C@@H](O)C[C@@H]1O = 0 (no)

Qu. What did this assay record as the result for `CO[C@H]1/C=C/O[C@@]2(C)Oc3c(C)c(O)c4c(O)c(c(/C=N\N5CCN(C6CCCC6)CC5)c(O)c4c3C2=O)NC(=O)/C(C)=C\C=C\[C@H](C)[C@H](O)[C@@H](C)[C@@H](O)[C@@H](C)[C@H](OC(C)=O)[C@@H]1C` ?
Ans. 1 (yes)

Qu. What did this assay record as the result for CC(C)C[C@H]1C(=O)N2CCCC2[C@]2(O)O[C@](NC(=O)[C@@H]3C=C4c5cccc6[nH]c(Br)c(c56)C[C@H]4N(C)C3)(C(C)C)C(=O)N12 (stereo partly specified) ?
Ans. 1 (yes)
